This collection of values is drawn from BindingDB's records for patent US12404295.

biological target: Galectin-3 (Homo sapiens); assay: Competitive Binding Assay
Sequence (P17931 whole entry): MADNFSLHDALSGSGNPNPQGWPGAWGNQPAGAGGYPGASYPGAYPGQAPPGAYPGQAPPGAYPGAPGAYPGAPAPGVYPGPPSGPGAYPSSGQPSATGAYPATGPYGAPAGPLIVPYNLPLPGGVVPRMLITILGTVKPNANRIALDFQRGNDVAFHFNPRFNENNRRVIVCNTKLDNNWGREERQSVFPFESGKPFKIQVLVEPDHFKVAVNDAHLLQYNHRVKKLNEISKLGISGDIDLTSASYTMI
pIC50: −log10 of the molar value.
Readout Type: pIC50

Please review the following examples before continuing.
Compound	Readout Type	Value
Cc1nc([C@H](S[C@@H]2O[C@H](CO)[C@H](O)[C@H](n3cc(-c4cc(F)c(F)c(F)c4)nn3)[C@H]2O)C(C)(C)O)c(C)s1 [US12404295, Example 2.31.123S.]	pIC50	5.33
Cc1ccccc1[C@H](S[C@@H]1O[C@H](CO)[C@H](O)[C@H](n2cc(-c3cc(F)c(F)c(F)c3)nn2)[C@H]1O)[C@@]1(O)CCOC(C)(C)C1 [US12404295, Example 2.43.112SR.]	pIC50	5.31
OC[C@H]1O[C@@H](S[C@@H](c2cccc(Cl)c2Cl)C2(O)CCC(F)(F)CC2)[C@H](O)[C@@H](n2cc(-c3cc(F)c(F)c(F)c3)nn2)[C@H]1O [US12404295, Example 2.44.113S.]	pIC50	4.24

A: Cc1ccccc1[C@@H](S[C@@H]1O[C@H](CO)[C@H](O)[C@H](n2cc(-c3cc(F)c(F)c(F)c3)nn2)[C@H]1O)[C@@]1(O)CCOC(C)(C)C1 [US12404295, Example 2.43.112RR.]
B: CC1(C)C[C@@](O)([C@H](S[C@@H]2O[C@H](CO)[C@H](O)[C@H](n3cc(-c4cc(F)c(F)c(F)c4)nn3)[C@H]2O)c2ccccc2C(F)(F)F)CCO1 [US12404295, Example 2.43.102RR.]
In the pair A and B , the larger recorded pIC50 belongs to which? Pick one; state its label.
B
(B: 6.54, A: 5.82)

P: CC1(C)CC(O)([C@H](S[C@@H]2O[C@H](CO)[C@H](O)[C@H](n3cc(-c4cc(F)c(F)c(F)c4)nn3)[C@H]2O)c2ccccc2C(F)(F)F)CC(C)(C)O1 [US12404295, Example 2.42.102R.]
Q: CC1(C)CC(O)([C@@H](S[C@@H]2O[C@H](CO)[C@H](O)[C@H](n3cc(-c4cc(F)c(F)c(F)c4)nn3)[C@H]2O)c2ccccc2C(F)(F)F)CC(C)(C)O1 [US12404295, Example 2.42.102S.]
Smaller pIC50 value? Options are P and Q Select an item and report its label.
Q
(Q: 5.11, P: 7.05)

P: CO[C@@H]1[C@@H](n2cc(-c3cc(F)c(F)c(F)c3)nn2)[C@@H](O)[C@@H](CO)O[C@H]1S[C@H](c1ncccc1C)[C@]1(O)CCOC(C)(C)C1 [US12404295, Example 2.43.126RS.I.]
Q: OC[C@H]1O[C@@H](S[C@@H](c2ccccc2C2CC2)C2(O)CCC(F)(F)CC2)[C@H](O)[C@@H](n2cc(-c3cc(F)c(F)c(F)c3)nn2)[C@H]1O [US12404295, Example 2.44.106S.*]
R: OC[C@H]1O[C@@H](SC(c2cccc(Cl)c2Cl)C2(O)CCC(F)(F)CC2)[C@H](O)[C@@H](n2cc(-c3cc(F)c(F)c(F)c3)nn2)[C@H]1O (stereo not given in full)
Parameters: sort_field (pIC50), sort_dir (desc). As an answer, provide the labels arranged in the order called for.
P, R, Q
(P: 7.40, R: 6.44, Q: 6.03)
